These entries and their values trace back to patent US11446300B2.

Test: Phase I study, pharmacokinetics following oral dosing
Type: in vivo, human
Details: human, plasma, oral; 45 mg/day; Table 3, n=43; read-out: T1/2 (converted)
Method: A first-in-human study of cerdulatinib in patients with relapsed/refractory CLL/SLL or B-cell non-Hodgkin's lymphoma (NHL) was carried out. […] Patients received a single dose on day 1 for 72 hour PK evaluation. Continuous dosing was initiated on day 4. […] Pharmacokinetics (“PK”), pharmacodynamics (“PD”), and safety were monitored. Response was assessed by standard criteria. […] Serum markers of tumor burden, including CCL3, CCL4, and other markers of inflammation (02M and CRP), were also being measured.
measured attribute: half-life (h)

- CCS(=O)(=O)N1CCN(c2ccc(Nc3ncc(C(N)=O)c(NC4CC4)n3)cc2)CC1: 22.3
